# Test system: COLO 205 colon
# assay.overview: NCI tumour cell line growth inhibition, 48 h
# label = Y if TGI >= 10 µM else N

Q: Could you tell me if the measured TGI of CSc1nc(NCc2ccccc2)c2cnn(COCCO)c2n1 reaches 10 µM or more?
Ans: Y

Q: Could you tell me if the measured TGI of COc1ccc2c(c1)C(=O)c1c-2n(CCCN(C)C)c(=O)c2cc([N+](=O)[O-])ccc12 reaches 10 µM or more?
Ans: Y

Q: Could you tell me if the measured TGI of CC(=O)C1C(=O)C(=O)N(CCN2C(=O)C(=O)C(C(C)=O)C2=O)C1=O (stereo not given) reaches 10 µM or more?
Ans: Y

Q: Could you tell me if the measured TGI of COc1ccc(-c2[nH]ncc2Nc2cc(OC)c(OC)c(OC)c2)cc1 reaches 10 µM or more?
Ans: N

Q: Could you tell me if the measured TGI of O=C1CC(c2ccccc2)n2c(nc3ccccc32)N1 (stereo not given) reaches 10 µM or more?
Ans: Y

Q: Could you tell me if the measured TGI of COc1ccc(Nc2nc(N)c(C(=O)c3ccc(Cl)cc3)s2)cc1 reaches 10 µM or more?
Ans: N

Q: Could you tell me if the measured TGI of CCOS(=O)(=O)c1ccc(-c2c3nc(c(-c4ccc(S(=O)(=O)OCC)cc4)c4ccc([nH]4)c(-c4ccc(S(=O)(=O)OCC)cc4)c4nc(c(-c5ccc(S(=O)(=O)OCC)cc5)c5ccc2[nH]5)C=C4)C=C3)cc1 reaches 10 µM or more?
Ans: Y

Q: Could you tell me if the measured TGI of CC1=C(C(=O)Nc2ccc(Cl)c(Cl)c2)C(c2cccc(Cl)c2)NC(=S)N1 (stereo not given) reaches 10 µM or more?
Ans: Y

Q: Could you tell me if the measured TGI of O=C1Nc2ccc(Cl)c(I)c2C1=O reaches 10 µM or more?
Ans: Y

Q: Could you tell me if the measured TGI of CC#COS(=O)(=O)c1ccc(C)cc1 reaches 10 µM or more?
Ans: Y

* * *

# System: LOX IMVI melanoma
# assay.overview: NCI tumour cell line growth inhibition, 48 h
# label = MET if TGI >= 20 µM else NOT MET

Q: Could you tell me if the measured TGI of CNC(=O)c1cc(Oc2ccc(NC(=O)Nc3cc(C(C)(C)C)nn3-c3ccc4ncccc4c3)c(F)c2)ccn1 reaches 20 µM or more?
Ans: NOT MET

Q: Could you tell me if the measured TGI of Brc1ccc(-c2cc3c(cc2C2SCCS2)OCO3)cc1 reaches 20 µM or more?
Ans: MET

Q: Could you tell me if the measured TGI of COc1cc(C2NC(=O)C(C#N)=C(Nc3cccc(C)c3)S2)ccc1O (stereo unspecified) reaches 20 µM or more?
Ans: MET

Q: Could you tell me if the measured TGI of NS(=O)(=O)c1ccc(N=Nc2c[nH]c(=O)c(O)c2)cc1 reaches 20 µM or more?
Ans: MET

Q: Could you tell me if the measured TGI of Cn1c(I)c(C#C[Si](C)(C)C)c(=O)[nH]c1=O reaches 20 µM or more?
Ans: NOT MET

Q: Could you tell me if the measured TGI of O=C1c2cccnc2-c2nccc3c2c1nc1ccccc13 reaches 20 µM or more?
Ans: NOT MET

Q: Could you tell me if the measured TGI of CN(C)CCCn1c(Cn2nc3ccccc3n2)nc2cc(C(F)(F)F)ccc21 reaches 20 µM or more?
Ans: MET

Q: Could you tell me if the measured TGI of O=C(NCCNCCO)c1ccc(Nc2nc3ccccc3c3occc23)cc1 reaches 20 µM or more?
Ans: MET

Q: Could you tell me if the measured TGI of O=C1Cc2cc(CCN3CCNCC3)c(Cl)cc2N1 reaches 20 µM or more?
Ans: MET

Q: Could you tell me if the measured TGI of N#Cc1c(N)nc(N2CCOCC2)c(C#N)c1-c1c(Cl)cccc1Cl reaches 20 µM or more?
Ans: MET
